List of pIC50 tested on Glycogen synthase kinase-3 beta (Homo sapiens).
Sequence (P49841 whole entry): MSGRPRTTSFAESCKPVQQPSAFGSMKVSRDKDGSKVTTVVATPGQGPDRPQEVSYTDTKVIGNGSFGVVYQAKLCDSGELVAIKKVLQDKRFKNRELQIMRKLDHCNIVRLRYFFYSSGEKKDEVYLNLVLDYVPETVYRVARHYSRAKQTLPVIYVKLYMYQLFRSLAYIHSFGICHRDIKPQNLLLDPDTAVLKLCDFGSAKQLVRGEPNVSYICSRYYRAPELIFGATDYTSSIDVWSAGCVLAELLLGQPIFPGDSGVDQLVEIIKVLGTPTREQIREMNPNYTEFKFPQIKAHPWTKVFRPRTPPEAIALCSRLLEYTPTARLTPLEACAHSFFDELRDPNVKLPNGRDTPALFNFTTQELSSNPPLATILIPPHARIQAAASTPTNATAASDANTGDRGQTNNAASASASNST
// scale note: pIC50 = -log10(conc_M); give the bare number

Query: Specify measured pIC50 for `COc1cc2c(C)cc3c(c2cc1OC)C(=O)NC3=O` .
Reply: 6.00

Query: Specify measured pIC50 for `COc1cc2c(CNC3CCN(S(=O)(=O)c4cccc5cccnc45)CC3)cc3c(c2cc1OC)C(=O)NC3=O` .
Reply: 5.82

Query: Specify measured pIC50 for `COc1cc2c(CNC3CCN(S(=O)(=O)c4ccccc4)CC3)cc3c(c2cc1OC)C(=O)NC3=O` .
Reply: 5.99
